Provide the recorded IC50 for the entries that follow.
Tested Target: SCD1 (Homo sapiens)
Construct: host or cells: Saccharomyces cerevisiae ole1Δ strain (W303 pdr1Δ pdr3Δ background), plasmid pRS316, TDH3 promoter
Sequence (O00767 whole entry): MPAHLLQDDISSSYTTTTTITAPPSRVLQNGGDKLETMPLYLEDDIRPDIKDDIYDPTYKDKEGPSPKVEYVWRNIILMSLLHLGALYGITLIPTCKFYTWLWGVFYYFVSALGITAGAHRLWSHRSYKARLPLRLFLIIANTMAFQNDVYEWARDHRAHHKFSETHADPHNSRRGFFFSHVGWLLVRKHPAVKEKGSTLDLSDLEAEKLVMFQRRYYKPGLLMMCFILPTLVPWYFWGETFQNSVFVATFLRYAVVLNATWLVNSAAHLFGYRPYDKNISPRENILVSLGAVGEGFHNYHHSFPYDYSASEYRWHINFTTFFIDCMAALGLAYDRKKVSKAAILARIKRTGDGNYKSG
Test Name: Growth inhibition of yeast (ole1Δ) expressing human SCD1 as the sole desaturase
Format: cell-based
Test Context: yeast strain with SCD1 plasmid, OD600 growth read at 40 h; read-out: SCD1 IC50
Give a bare numeral; the unit µM is implied.

SCD1 (Homo sapiens) IC50 of Cn1nc(NC(=O)N2CCC(Cc3cccc(Cl)c3)C2)ccc1=O (stereo not drawn) [Compound 25] is 2.75

Test item Cn1nc(NC(=O)N2CCC(Cc3ccc(Cl)cc3)CC2)ccc1=O [Compound 43] ; SCD1 (Homo sapiens); reported IC50 was 8.58

Record Cn1nc(NC(=O)N2CCC(Oc3cc(F)cc(F)c3)CC2)ccc1=O [Compound 79] ; system SCD1 (Homo sapiens); IC50 = 0.48

IC50 of Cn1nc(NC(=O)N2CCC(Oc3ccc(C(F)(F)F)cc3)CC2)ccc1=O [Compound 76] , assay on SCD1 (Homo sapiens), is 9.77

I looked up Cn1nc(NC(=O)N2CCC(Cc3ccc(F)c(F)c3)CC2)ccc1=O [Compound 49] and its IC50 for SCD1 (Homo sapiens) was 8.1

The reported IC50 value, SCD1 (Homo sapiens), for Cn1nc(-c2nc(N3CCC(Oc4cccc(F)c4Cl)CC3)no2)ccc1=O [Compound 112] reads 0.5

Entry Cn1nc(NC(=O)N2CCC(Cc3ccc(F)c(Cl)c3)CC2)ccc1=O [Compound 54] under SCD1 (Homo sapiens) had IC50 of 0.44
